# Tested on: MRSA 33
# MEASUREMENT_PROTOCOL: Antibacterial activity (MIC) against MRSA 33
# Assay type: cell-based, methicillin-resistant Staphylococcus aureus
# MEASUREMENT_SETUP: Staphylococcus aureus, MRSA, MRSA 33, 10^6 cfu/mℓ; read-out: antibacterial activities (MIC)
In this section we review reported MIC values for a set of molecules.

# RECORD_SMILES, MIC (µg/mL)
measured = [
    ("C[C@H](O)[C@@H]1C(=O)N2C(C(=O)O)=C(SC3Cc4ccccc4C3)S[C@H]12", 1.56),
    ("CC(=N)N1CC[C@H](SC2=C(C(=O)O)N3C(=O)[C@H]([C@H](C)F)[C@H]3S2)C1", 3.13),
    ("C[C@H](O)[C@@H]1C(=O)N2C(C(=O)O)=C(SCCc3ccccc3)S[C@H]12", 6.25),
    ("CC(=N)N1CC[C@H](SC2=C(C(=O)O)N3C(=O)[C@@H]([C@H](C)O)[C@H]3S2)C1", 6.25),
    ("CSC1=C(C(=O)O)N2C(=O)[C@@H]([C@H](C)O)[C@H]2S1", 12.5),
    ("C[C@H](O)[C@@H]1C(=O)N2C(C(=O)O)=C(SCc3ccc4ccccc4c3)S[C@H]12", 3.13),
    ("C[C@H](O)[C@@H]1C(=O)N2C(C(=O)O)=C(S[C@@H]3CN[C@H](CO)C3)S[C@H]12", 6.25),
    ("C[C@H](O)[C@@H]1C(=O)N2C(C(=O)O)=C(S[C@H]3CCN(CCF)C3)S[C@H]12", 6.25),
]

----------
In this section we review reported MIC values for a set of compounds.
# Tested on: MRSA 33
# MEASUREMENT_PROTOCOL: Antibacterial activity (MIC) against MRSA 33
# Type: cell-based, methicillin-resistant Staphylococcus aureus
# MEASUREMENT_SETUP: Staphylococcus aureus, MRSA, MRSA 33, 10^6 cfu/mℓ; read-out: antibacterial activities (MIC)
MEASUREMENT_LABEL: MIC (µg/mL)

# COMPOUND, MEASURED_ON, OBSERVED_MEASUREMENT
rows = [
    ("CCCSC1=C(C(=O)O)N2C(=O)[C@@H]([C@H](C)O)[C@H]2S1", "MRSA 33", 12.5),
    ("C[C@H](O)[C@@H]1C(=O)N2C(C(=O)O)=C(S[C@H]3CCN(CC(=O)c4ccccc4)C3)S[C@H]12", "MRSA 33", 6.25),
    ("CC(C)SC1=C(C(=O)O)N2C(=O)[C@@H]([C@H](C)O)[C@H]2S1", "MRSA 33", 12.5),
    ("C[C@H](O)[C@@H]1C(=O)N2C(C(=O)O)=C(SCc3ccccc3)S[C@H]12", "MRSA 33", 3.13),
    ("C[C@H](O)[C@@H]1C(=O)N2C(C(=O)O)=C(SC3CCc4ccccc43)S[C@H]12 (some centres unmarked)", "MRSA 33", 3.13),
    ("CCSC1=C(C(=O)O)N2C(=O)[C@@H]([C@H](C)O)[C@H]2S1", "MRSA 33", 12.5),
    ("C[C@H](O)[C@@H]1C(=O)N2C(C(=O)O)=C(SCC(=O)NCc3ccccc3)S[C@H]12", "MRSA 33", 12.5),
    ("C[C@H](O)[C@@H]1C(=O)N2C(C(=O)O)=C(SCCc3ccccn3)S[C@H]12", "MRSA 33", 6.25),
]

These data points were gathered from patent EP0774465A1.
